Where do these numbers come from? They come from patent US9340549B2.

Some compounds, each annotated with its measured IC50.
target: 6×HIS-tankyrase 1 (1091-1325) (Homo sapiens (Human), UniProt O95271); test: biochemical; type: biochemical; conditions: […] enzyme, 400 nM NAD, 60 minutes at room temperature; read-out: TNKS1 IP IC50
Sequence (O95271 1091-1325): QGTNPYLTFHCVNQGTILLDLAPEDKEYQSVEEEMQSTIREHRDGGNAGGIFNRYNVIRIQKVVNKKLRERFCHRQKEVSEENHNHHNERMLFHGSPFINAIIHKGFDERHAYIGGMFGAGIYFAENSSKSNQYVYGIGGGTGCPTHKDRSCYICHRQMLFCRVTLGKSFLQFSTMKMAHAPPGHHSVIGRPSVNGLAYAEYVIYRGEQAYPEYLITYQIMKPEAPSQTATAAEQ
assayReadout: IC50 (nM)

compound=Cc1nc(C(=O)N[C@H]2CC[C@H](N3C(=O)OC(C)(C)[C@@H]3c3ccccc3)CC2)cs1 assayreadout=IC50 qualifiersign=> reportedmeasurement=46300
compound=CC1(C)OC(=O)N(c2ccc(-c3cnc(N)c(-c4ccc5nncn5n4)c3)cc2)[C@H]1c1ccccc1 assayreadout=IC50 qualifiersign== reportedmeasurement=52.1
compound=CC1(C)OC(=O)N(c2ccc(-c3cc(-c4ncccn4)cnc3F)cc2)[C@H]1c1ccccc1 assayreadout=IC50 qualifiersign== reportedmeasurement=378
compound=CC1(C)OC(=O)N([C@H]2CC[C@@H](c3cnc4cc[nH]c4c3)CC2)[C@H]1c1ccccc1 assayreadout=IC50 qualifiersign== reportedmeasurement=1250
compound=CC1(C)OC(=O)N([C@H]2CC[C@H](c3cnc(N)c(Nc4ncccn4)c3)CC2)[C@@H]1c1ccccc1 assayreadout=IC50 qualifiersign== reportedmeasurement=2060
compound=CC1(C)OC(=O)N([C@H]2CC[C@H](n3c(=O)[nH]c4cc(C#N)ccc43)CC2)[C@H]1c1ccc(F)cc1 assayreadout=IC50 qualifiersign== reportedmeasurement=3.42
compound="CC1(C)OC(=O)N([C@H]2CC[C@H](n3c(=O)[nH]c4ccccc43)CC2)C1c1ccccc1 (stereo partly shown)" assayreadout=IC50 qualifiersign== reportedmeasurement=11.8
